Consider the following compounds; for each one, report its pIC50.
# System: MCF7
# method_summary: Antiproliferative activity against human MCF7 cells assessed as cell viability after 48 hrs by SRB assay
# Type: functional, cell-based
# recorded_conditions: MCF7, 48 h
Numbers only, as −log10 of the molar value.

[
  {
    "chemical_structure": "COc1cc(/C=C/c2c(/C=C/[N+](=O)[O-])cc(OC)c(OC)c2OC)cc(OC)c1",
    "pIC50": 4.72
  },
  {
    "chemical_structure": "COc1cc(/C=C/[N+](=O)[O-])c(/C=C/c2ccc3ccccc3c2)c(OC)c1OC",
    "pIC50": 4.78
  },
  {
    "chemical_structure": "COc1cc(/C=C/[N+](=O)[O-])c(/C=C/c2ccc(Cl)cc2)c(OC)c1OC",
    "pIC50": 4.59
  },
  {
    "chemical_structure": "Oc1ccc(/C=C/c2cc(O)cc(O)c2)cc1",
    "pIC50": 4.10
  },
  {
    "chemical_structure": "COc1ccc(/C=C/c2c(/C=C/[N+](=O)[O-])cc(OC)c(OC)c2OC)cc1",
    "pIC50": 4.67
  },
  {
    "chemical_structure": "COc1cc(/C=C/[N+](=O)[O-])c(/C=C/c2ccc3c(c2)OCO3)c(OC)c1OC",
    "pIC50": 4.72
  },
  {
    "chemical_structure": "COc1cc(/C=C/[N+](=O)[O-])c(/C=C/c2ccc(Br)cc2)c(OC)c1OC",
    "pIC50": 4.84
  },
  {
    "chemical_structure": "COc1cc(/C=C/[N+](=O)[O-])c(/C=C/c2ccc(-c3ccccc3)cc2)c(OC)c1OC",
    "pIC50": 5.14
  }
]

Take each entry in turn and give its pIC50.
1. COc1cc(/C=C/[N+](=O)[O-])c(/C=C/c2ccc(F)cc2)c(OC)c1OC
2. COc1cc(/C=C/c2c(/C=C/[N+](=O)[O-])cc(OC)c(OC)c2OC)cc(OC)c1OC
3. COc1cc(/C=C/[N+](=O)[O-])c(/C=C/c2ccc(C)cc2)c(OC)c1OC
4. COc1cc(/C=C/[N+](=O)[O-])c(/C=C/c2ccccc2)c(OC)c1OC

1: 4.72; 2: 4.88; 3: 4.37; 4: 4.96

====

# Species: Bos taurus
# method_summary: Inhibition of bovine tubulin polymerization at 3 uM after 1 hr by fluorescence assay relative to control
observation_type: inhibition (%)
Numbers only, in %.

[
  {
    "chemical_structure": "COc1cc(/C=C/[N+](=O)[O-])c(/C=C/c2ccc(Br)cc2)c(OC)c1OC",
    "observation_type": "inhibition",
    "result_unit": "%",
    "reported_value": 28
  },
  {
    "chemical_structure": "COc1ccc(/C=C/c2c(/C=C/[N+](=O)[O-])cc(OC)c(OC)c2OC)cc1",
    "observation_type": "inhibition",
    "result_unit": "%",
    "reported_value": 59
  },
  {
    "chemical_structure": "COc1cc(/C=C/[N+](=O)[O-])c(/C=C/c2ccccc2)c(OC)c1OC",
    "observation_type": "inhibition",
    "result_unit": "%",
    "reported_value": 31
  },
  {
    "chemical_structure": "COc1cc(/C=C/[N+](=O)[O-])c(/C=C/c2ccc(-c3ccccc3)cc2)c(OC)c1OC",
    "observation_type": "inhibition",
    "result_unit": "%",
    "reported_value": 28
  },
  {
    "chemical_structure": "COc1cc(/C=C/c2c(/C=C/[N+](=O)[O-])cc(OC)c(OC)c2OC)cc(OC)c1",
    "observation_type": "inhibition",
    "result_unit": "%",
    "reported_value": 27
  }
]

Take each entry in turn and give its inhibition.
1. COc1cc(/C=C/c2c(/C=C/[N+](=O)[O-])cc(OC)c(OC)c2OC)cc(OC)c1OC
2. COc1cc(/C=C/[N+](=O)[O-])c(/C=C/c2ccc3c(c2)OCO3)c(OC)c1OC
3. COc1cc(/C=C/[N+](=O)[O-])c(/C=C/c2ccc(Cl)cc2)c(OC)c1OC
4. COc1cc(/C=C/[N+](=O)[O-])c(/C=C/c2ccc3ccccc3c2)c(OC)c1OC
5. COc1cc(/C=C/[N+](=O)[O-])c(/C=C/c2ccc(C)cc2)c(OC)c1OC
6. COc1cc2c(c(OC)c1OC)-c1ccc(OC)c(=O)cc1[C@@H](NC(C)=O)CC2
7. COc1cc(/C=C/[N+](=O)[O-])c(/C=C/c2ccc(F)cc2)c(OC)c1OC

[20, 51, 33, 32, 62, 58, 31]

Reference for the values: ChEMBL document CHEMBL1833868
